- targetOrSystem: T1, Cynomolgus CD3 on Cyno CD3+ Jurkat cells (cynomolgus, UniProt Q95LI5 22-198)
- T1 construct: whole, on cells; CD3 on cells; also called cCD3
- T1 sequence (Q95LI5 22-198): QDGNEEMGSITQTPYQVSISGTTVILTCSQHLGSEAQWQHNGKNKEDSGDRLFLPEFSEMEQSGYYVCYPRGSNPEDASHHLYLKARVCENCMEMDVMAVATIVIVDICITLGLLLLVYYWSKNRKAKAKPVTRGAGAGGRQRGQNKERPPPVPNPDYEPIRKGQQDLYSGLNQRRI
- measurementNotes: cell binding cCD3, fold over background
recordedEndpoint: Cell Binding cCD3 (FOB)
Report as a plain number; the unit FOB is understood.

Worked examples follow.
binder | Cell Binding cCD3 (FOB)
ADI-46367 (antibody, V domains shown, also called Ab32) VH: QVQLVQSGAEVKKPGASVKVSCKASGFNIKDYYMHWVRQAPGQRLEWIGWIDLENANTVYDAKFQGRVTITRDTSASIAYMELSSLRSEDTAVYYCARDAYGRYFYDVWGQGTLVTVSS VL: DIVMTQSPDSLAVSLGERATINCKSSQSLLNARTGKNYLAWYQQKPGQPPKLLIYWASTRESGVPDRFSGSGSGTDFTLTISSLQAEDVAVYYCAQSYFRRTFGGGTKVEIK | 62
ADI-45980 (antibody, V domains shown, also called Ab17) VH: QVQLVQSGAEVKKPGASVKVSCKASGFNIKDYYMHWVRQAPGQRLEWIGWIDLENANTVYDAKFQGRVTITRDTSASTAYMELNSLRSEDTAVYYCARDAYGRYFYDVWGQGTLVTVSS VL: DIVMTQSPDSLAVSLGERATINCKSSQSLLNARTGKNYLAWYQQKPGQPPKLLIYWAFTRESGVPDRFSGSGSGTDFTLTISSLQAEDVAVYYCTQSYFRRTFGGGTKVEIK | 85

Entry under test: ADI-46369 (antibody, V domains shown, also called Ab33) VH: QAQLVQSGAEVKKPGASVKVSCKASGFNIKDYYMHWVRQAPGQRLEWIGWIDLENANTVYDTKFQGRVTITRDTSASTAYMELSSLRSEDTAVYYCARDAYGRYFYDVWGQGTLVTVSS VL: DIVMTQSPDSLAVSLGERATINCKSSQSLLNARTGKNYLAWYQQKPGQPPKLLIYWASTRESGVPDRFSGSGSGTDFTLTISSLQAEDVAVYYCVQSYFRRTFGGGTKVEIK . Its Cell Binding cCD3 (FOB) was 71
